# Tested on: CP315
# Assay: qHTS profiling for inhibitors of Plasmodium falciparum proliferation (AID 504749); also: nearly all actives have a fitted effect of over 60% in size
# Condition Summary: P. falciparum in erythrocytes, SYBR Green DNA, 72 h; series mostly up to 28.7 µM
Results filed as inconclusive are left out. Active and inactive are the calls of the source. Calls follow the shape of the dose curve; as a rule, active = well fitted inhibition curve with a large enough effect; inconclusive = small, poorly fitted or top-dose-only effect; inactive = flat fitted curve, though single readings scatter.
Outcome codes: active, inactive

[[record]]
compound = "O=C1[C@@H]2C[C@@H]3C[C@H]1C[C@@](O)(C3)C2"
group_label = "inactive"

[[record]]
compound = "CC(C)(C)NC[C@H](O)CSc1nc(-c2ccc(C(N)=O)s2)cs1"
group_label = "inactive"

[[record]]
compound = "OCC1O[C@H](Oc2ccc(O)cc2)C(O)C(O)C1O (stereo not given in full)"
group_label = "inactive"

[[record]]
compound = "COC(c1ccccc1)(c1ccccc1)C(Oc1nc(C)cc(C)n1)C(=O)O (stereo not given)"
group_label = "inactive"

[[record]]
compound = "C=C[C@@]1(C)C[C@H](OC(=O)CSC(C)(C)CNC(=O)[C@@H](N)C(C)C)[C@@]2(C)C(C)CC[C@@]3(CCC(=O)[C@@H]32)[C@H](C)[C@H]1O (stereo not given in full)"
group_label = "active"

